test: Pharmacokinetics of ATL compounds after oral administration in ICR male mice; format: in vivo; settings: mouse, brain and plasma, brain vs plasma AUClast, 5 mg/kg oral, read-out: B/P ratio
Assay readout: Kp

Could you share which Kp value was measured for OCCNCc1ccc(OCc2ccccc2)c(OCCCc2ccccc2)c1 [ATL7] ?
~3

* * *

experiment: Brain penetration of ATC161 in TauP301L-BiFC AD mouse model; type: in vivo, mice; details: after 4 h of oral administration
Assay readout: Kp at 4 h

Kp at 4 h lookup needed for Fc1ccc(COc2cccc(CNCCOCCOCCNc3cccc(-c4cc(-c5ccc6c(c5)OCO6)n[nH]4)c3)c2)cc1 [ATC161] , thanks.
~0.1
